Below is a list of entries, each paired with its recorded SOLNI damage score (10=total damage to plant; 0=no damage to plant) value.
- Test system: Solanum nigrum
- PROTOCOL DETAILS: Example B2 herbicidal action, post-emergence, pots in glasshouse, damage score 0-10
- Format: in vivo
- CONDITION INFO: application post-emergence, rate 1000 g/ha, evaluated after 13 days
QUANTITY: SOLNI damage score (10=total damage to plant; 0=no damage to plant)

CSC(=O)OC1=C(c2c(Cl)ccc(Cl)c2Cl)S(=O)(=O)N(CC(F)F)c2nccnc21; 10
C=C(C)CN1c2nccnc2C(OC(=O)C(C)(C)C)=C(c2cccc(Cl)c2Cl)S1(=O)=O; 2
CCN1c2nccnc2C(O)=C(c2cc(C(F)(F)F)ccc2Br)S1(=O)=O; 9
C=CCN1c2nccnc2C(OC(=O)C(C)(C)C)=C(c2cc(Cl)ccc2C(F)(F)F)S1(=O)=O; 8
CC(C)(C)C(=O)OC1=C(c2c(Cl)ccc(Cl)c2C(F)(F)F)S(=O)(=O)N(CC(F)F)c2nccnc21; 8
CC(C)C(=O)OC1=C(c2ccccc2Br)S(=O)(=O)N(CC(F)F)c2nccnc21; 10
O=S1(=O)C(c2c(Cl)cccc2C(F)(F)F)=C(O)c2c(ncc[n+]2[O-])N1CC(F)F [Compound E2]; 9
CCN1c2nccnc2C(OC(=O)C(C)(C)C)=C(c2cc(C(F)(F)F)ccc2C(F)(F)F)S1(=O)=O; 6
CC(C)C(=O)OC1=C(c2ccccc2SC(F)(F)F)S(=O)(=O)N(CC(F)F)c2nccnc21; 3
COc1ccc(F)c(C2=C(OC(=O)C(C)(C)C)c3nccnc3N(CC(F)F)S2(=O)=O)c1Cl; 10
COc1ccc(Cl)c(C2=C(OC(=O)C(C)C)c3nccnc3N(CC(F)F)S2(=O)=O)c1F; 10
CCN1c2nccnc2C(O)=C(c2ccc(Cl)c(Cl)c2)S1(=O)=O; 2
CC(C)C(=O)OC1=C(c2cc(C(F)(F)F)ccc2Cl)S(=O)(=O)N(C=CCl)c2nccnc21 (mixture of isomers); 10
O=S1(=O)C(c2ccc(I)cc2Cl)=C(O)c2nccnc2N1CC(F)F; 8
O=S1(=O)C(c2cc(Cl)cc(C(F)(F)F)c2)=C(O)c2nccnc2N1CC(F)F; 2
CC(C)(C)C(=O)OC1=C(c2cc(I)ccc2Cl)S(=O)(=O)N(CC(F)F)c2nccnc21; 7
CC(C)C(=O)OC1=C(c2ccc(Cl)cc2Cl)S(=O)(=O)N(CC(Cl)Cl)c2nccnc21; 10
CC(C)C(=O)OC1=C(c2cc(C(F)(F)F)ccc2Cl)S(=O)(=O)N(CC(F)F)c2nccnc21; 9
CCSC(=O)OC1=C(c2c(Cl)ccc(Cl)c2Cl)S(=O)(=O)N(CC(F)F)c2nccnc21; 9
CC(C)(C)C(=O)OC1=C(c2cccc(Cl)c2Cl)S(=O)(=O)N(CC(F)F)c2nccnc21; 9
CC(C)(C)C(=O)OC1=C(c2ccc(-c3ccc(Cl)cc3F)cc2Cl)S(=O)(=O)N(CC(F)F)c2nccnc21; 6
Cc1ccc(C2=C(OC(=O)C(C)C)c3nccnc3N(CC(F)F)S2(=O)=O)c(Cl)c1; 8
C=CCN1c2nccnc2C(O)=C(c2cc(Cl)ccc2C(F)(F)F)S1(=O)=O; 7
CCSC(=O)OC1=C(c2cc(C(F)(F)F)ccc2Cl)S(=O)(=O)N(C)c2nccnc21; 10
CCSC(=O)OC1=C(c2c(Cl)ccc(Cl)c2C(F)(F)F)S(=O)(=O)N(CC(F)F)c2nccnc21; 9
CCN1c2nccnc2C(OC(=O)C(C)C)=C(c2cc(C(F)(F)F)ccc2Br)S1(=O)=O; 8
CC(C)C(=O)OC1=C(c2ccccc2C(F)(F)F)S(=O)(=O)N(CC(F)F)c2nccnc21; 10
O=S1(=O)C(c2c(C(F)(F)F)ccc(Cl)c2Cl)=C(O)c2nccnc2N1CC(F)F; 10
CCN1c2nccnc2C(OC(=O)C(C)(C)C)=C(c2cccc(Cl)c2Cl)S1(=O)=O; 3
CCSC(=O)OC1=C(c2ccccc2I)S(=O)(=O)N(CC(F)F)c2nccnc21; 10
Cc1ccc(C(F)(F)F)c(C2=C(O)c3nccnc3N(CC(F)F)S2(=O)=O)c1; 10

---

- Tested on: Ipomea hederaceae
- PROTOCOL DETAILS: Example B2 herbicidal action, post-emergence, pots in glasshouse, damage score 0-10
- Type: in vivo
- CONDITION INFO: application post-emergence, rate 1000 g/ha, evaluated after 13 days
Parameter: IPOHE damage score (10=total damage to plant; 0=no damage to plant). Scope: all listed entries.
QUANTITY: IPOHE damage score (10=total damage to plant; 0=no damage to plant)

CC(C)(C)C(=O)OC1=C(c2ccccc2OC(F)(F)F)S(=O)(=O)N(CC(F)F)c2nccnc21 [Compound C21]; 9
CCN1c2nccnc2C(OC(=O)C(C)(C)C)=C(c2c(F)ccc(OC)c2Cl)S1(=O)=O [Compound C24]; 9
CN1c2nccnc2C(OC(=O)C(C)(C)C)=C(c2c(Cl)ccc(Cl)c2Cl)S1(=O)=O [Compound C93]; 6
Cc1ccc(F)c(C2=C(O)c3nccnc3N(CC(F)F)S2(=O)=O)c1Cl [Compound D12]; 5
C=CCN1c2nccnc2C(OC(=O)C(C)(C)C)=C(c2cc(Cl)ccc2C(F)(F)F)S1(=O)=O [Compound C118]; 4
CC(C)C(=O)OC1=C(c2cc(Cl)ccc2C(F)(F)F)S(=O)(=O)N(CC(F)F)c2nccnc21 [Compound C113]; 9
CC(C)C(=O)OC1=C(c2cc(C(F)(F)F)ccc2Cl)S(=O)(=O)N(CC(F)F)c2nccnc21 [Compound C91]; 10
CC(C)(C)C(=O)OC1=C(c2c(F)ccc(Br)c2Cl)S(=O)(=O)N(CC(F)F)c2nccnc21 [Compound C35]; 10
CCSC(=O)OC1=C(c2ccccc2I)S(=O)(=O)N(CC(F)F)c2nccnc21 [Compound C82]; 10
CCN1c2nccnc2C(OC(=O)C(C)(C)C)=C(c2c(F)cccc2C(F)(F)F)S1(=O)=O [Compound C43]; 5
CC(C)(C)C(=O)OC1=C(c2c(F)ccc(Cl)c2Cl)S(=O)(=O)N(CC(F)F)c2nccnc21 [Compound C20]; 10
COCN1c2nccnc2C(OC(=O)C(C)(C)C)=C(c2ccc(Cl)cc2Cl)S1(=O)=O [Compound C11]; 2
CS(=O)(=O)OC1=C(c2cc(C(F)(F)F)ccc2Cl)S(=O)(=O)N(CC(F)F)c2nccnc21 [Compound C83]; 10
CC(C)(C)C(=O)OC1=C(c2cc(Cl)ccc2C(F)(F)F)S(=O)(=O)N(CC(F)F)c2nccnc21 [Compound C111]; 9
CC#CCN1c2nccnc2C(OC(=O)C(C)(C)C)=C(c2c(Cl)ccc(Cl)c2C(F)(F)F)S1(=O)=O [Compound C96]; 4

---

Each entry below carries its recorded SOLNI damage score (10=total damage to plant; 0=no damage to plant).
- Tested on: Solanum nigrum
- PROTOCOL DETAILS: Example B2 herbicidal action, post-emergence, pots in glasshouse, damage score 0-10
- Assay type: in vivo
- CONDITION INFO: application post-emergence, rate 1000 g/ha, evaluated after 13 days
QUANTITY: SOLNI damage score (10=total damage to plant; 0=no damage to plant)

O=S1(=O)C(c2c(F)cccc2C(F)(F)F)=C(O)c2nccnc2N1CC(F)F; 9
CC(C)(C)C(=O)OC1=C(c2cccc(C(F)(F)F)c2Cl)S(=O)(=O)N(CC(F)F)c2nccnc21; 6
O=S1(=O)C(c2cc(C(F)(F)F)ccc2Cl)=C(O)c2c(ncc[n+]2[O-])N1CC(F)F [Compound E1]; 9
CCN1c2nccnc2C(OC(=O)C(C)C)=C(c2ccccc2SC(F)(F)F)S1(=O)=O; 6
CCN1c2nccnc2C(O)=C(c2cc(C(F)(F)F)ccc2Cl)S1(=O)=O; 9
O=S1(=O)C(c2cc(I)ccc2Cl)=C(O)c2nccnc2N1CC(F)F; 7
CC#CCN1c2nccnc2C(O)=C(c2c(Cl)ccc(Cl)c2C(F)(F)F)S1(=O)=O; 8
O=S1(=O)C(c2ccccc2Br)=C(O)c2nccnc2N1CC(F)F; 10

---

- System: Solanum nigrum
- PROTOCOL DETAILS: Example B2 herbicidal action, post-emergence, pots in glasshouse, damage score 0-10
- Assay type: in vivo
- CONDITION INFO: application post-emergence, rate 1000 g/ha, evaluated after 13 days
Measured SOLNI damage score (10=total damage to plant; 0=no damage to plant) values are reported for all entries that follow.
QUANTITY: SOLNI damage score (10=total damage to plant; 0=no damage to plant)

CCN1c2nccnc2C(OC(=O)C(C)C)=C(c2c(Cl)cccc2C(F)(F)F)S1(=O)=O; 10
O=S1(=O)C(c2ccc(Cl)cc2Cl)=C(O)c2nccnc2N1CC(F)(F)F; 8
CCN1c2nccnc2C(OC(=O)C(C)C)=C(c2ccccc2OC(F)(F)F)S1(=O)=O; 9
CCSC(=O)OC1=C(c2cc(C(F)(F)F)ccc2Cl)S(=O)(=O)N(CC)c2nccnc21; 10
CCSC(=O)OC1=C(c2c(F)ccc(Cl)c2Cl)S(=O)(=O)N(CC(F)F)c2nccnc21; 8
CCSC(=O)OC1=C(c2cc(Cl)ccc2C(F)(F)F)S(=O)(=O)N(CC)c2nccnc21; 8
C#CCN1c2nccnc2C(O)=C(c2c(Cl)ccc(Cl)c2C(F)(F)F)S1(=O)=O; 9
